Measured on: T1, synthetic biotin-8xGA (also: biotin, position not given here)
T1 construct: also called synthetic 8×GA; poly-(GA)8 peptide
T1 peptide: GAGAGAGAGAGAGAGA
Assay text: SPR (Biacore T200), biotin-8xGA captured on Biotin CAPture chip, Fab as analyte, 1:1 model
Ends that are not written are not given here.
Listed binders paired with reported kon

Binder	kon, M⁻¹ s⁻¹
NI-308.5J10 variant N54S-Fab-6His / N75D light chain (Fab, V domains shown, Plasmids SDD179 and SDD177; also called HC N54S/LC N75D Fab; 5J10-LC N75D, HC N54S Fab) VH: SETLSLTYTVLGGSVSDYYWSCIRQPAGKGLEWIGRTYTSGKTTYTYNPSLESRLSLSIDTSMNQFSLKLTSVTAADTAVYYCARWGAVTGDYYYGMDVWGPGTLVTVSS VL: EIVLTQSPLSLSVTPGEPASISCRSPRSLLHTNGYTYLDWYLQRPGQSPQLLIFLASNRASGVPDRFSGSGSGTDFTLRISGVEADDVGVYYCMQGLQPSWTFGQGTKVEIKR	290000
NI-308.5J10 WT Fab-6His (WT-Fab-6His / WT light chain) (Fab, V domains shown, The heavy chain is VH-CH1 with a C-terminal hexahistidine tag; also called 5J10 Fab) VH: SETLSLTYTVLGGSVSDYYWSCIRQPAGKGLEWIGRTYTNGKTTYTYNPSLESRLSLSIDTSMNQFSLKLTSVTAADTAVYYCARWGAVTGDYYYGMDVWGPGTLVTVSS VL: EIVLTQSPLSLSVTPGEPASISCRSPRSLLHTNGYTYLDWYLQRPGQSPQLLIFLASNRASGVPDRFSGSGSGTNFTLRISGVEADDVGVYYCMQGLQPSWTFGQGTKVEIKR	270000
NI-308.5J10 variant G55S-Fab-6His / N75D light chain (Fab, V domains shown, Plasmids SDD181 and SDD177; also called HC G55S/LC N75D Fab; 5J10-LC N75D, HC G55S Fab) VH: SETLSLTYTVLGGSVSDYYWSCIRQPAGKGLEWIGRTYTNSKTTYTYNPSLESRLSLSIDTSMNQFSLKLTSVTAADTAVYYCARWGAVTGDYYYGMDVWGPGTLVTVSS VL: EIVLTQSPLSLSVTPGEPASISCRSPRSLLHTNGYTYLDWYLQRPGQSPQLLIFLASNRASGVPDRFSGSGSGTDFTLRISGVEADDVGVYYCMQGLQPSWTFGQGTKVEIKR	180000

# credit: patent US20220153874A1
